- Test system: CCRF-CEM leukemia
- Assay Notes: NCI-60 one-dose screen, 48 h (100 = growth as untreated, 0 = no growth, -100 = all killed)
- Assay Setup: 10 µM unless noted
The panel holds about 83,000 compounds, 20% with a hit somewhere; the sample as a whole holds those more often.
A collection of compounds and their measured growth
The figure you give is taken to be in %; do not add the unit.

Worked cases, answers included:
Compound	Unit Annotation	Endpoint Value
C=C(C)[C@@H]1C/C=C(/C=O)CC[C@@H]2O[C@@]2(C)CC/C=C(\C)CC1	%	137
Cc1ccsc1/C=C/C1=NCCCN1C	%	81
CC(=O)c1ccc2c3c(n(C)c2c1)CCCC3	%	86.6
COc1ccc2[nH]c(-c3ccccc3)cc2c1	%	88.5
CCCCCCCC/C=C/CCCCCCCC1=NC(C)(C)CN1CC(C)O (stereo unspecified)	%	-37.9
O=C(/C=C/c1ccc(O)c(O)c1)N1CCN(c2ccc(Cl)cc2)CC1	%	32.6
CCOC(=O)c1c(C)nc(C)c(C(=O)OCC)c1-c1cccnc1	%	102
O=C1c2ccccc2C(=O)c2c1cccc2-n1nnc2ccccc21	%	80.9

Query: growth; subject: "COc1cc2cn3c4ccc(O)cc4nc(N)c3c2cc1OC"
21.1

Next compound: "c1cnc2n[nH]c(Nc3ncnc4c3sc3ncccc34)c2c1"
88.6

Next compound: "Cc1cc(NC(=O)c2ccc(N)cc2)ccc1N=Nc1ccc2c(O)c(N=Nc3ccc(Cl)c(S(=O)(=O)O)c3)c(S(=O)(=O)O)cc2c1"
55.7

Source listed as PubChem BioAssay (NCI).
